- measurement_target: human full-length VWF (human, UniProt P04275 764-2813)
- assay_info: SPR, Biacore T200, antibody captured on Protein A, full-length VWF as analyte, single-cycle kinetics
measured_quantity: kon (M⁻¹ s⁻¹)
A number alone suffices; assume M⁻¹ s⁻¹.

Recorded results for 2 binders are shown here.
1) 4-H3_VH-par_L0 (antibody, human IgG1, kappa, V domains shown, also called 4-H3_L0 (hIgG1K)) VH: SQSLEESGGRLVPPGTPLTLTCTVSGIDLTSNAMNWVRQAPGKGLEWIGGIYGHDTSYYAAWAKGRFTISRTSTTVDLKMTRPTTDDTATYFCARGFIYFDIWGTGTLVTISS VL: DIQMTQSPSSLSASVGDRVTITCLASEDIASGISWYQQKPGKAPKLLIYGASNLESGVPSRFSGSGSGTDFTLTISSLQPEDFATYYCLGGYSFSSNGLTFGGGTKVEIKT | 48800
2) 1-A2_H0_L0 (antibody, human IgG1, kappa, V domains shown, humanised, human IgG1 kappa) VH: QVQLVESGGGVVQPGRSLRLSCAASGFTFSSNAMNWVRQAPGKGLEWVAGIYGHDTSYYAAWAKGRFTISRDNSKNTLYLQMNSLRAEDTAVYYCARGFIYFDIWGQGTLVTVSS VL: DIQMTQSPSSLSASVGDRVTITCLASEDIYSGISWYQQKPGKAPKLLIYGASNLESGVPSRFSGSGSGTDFTLTISSLQPEDFATYYCLGGHSHSTTDLTFGGGTKVEIKT | 119000

# input for lookup
Item 4-H3_H8_VL-par (antibody, human IgG1, kappa, V domains shown, also called 4-H3_H8 (hIgG1)) VH: QQLVESGGGVVQPGRSLRLSCAASGIDLTSNAMNWVRQAPGKGLEWIGGIYGHDTSYYAAWAKGRFTISRDSNTVYLQMNSLRAEDTATYFCARGFIYFDIWGQGTLVTVSS VL: AYDMTQTPPSLSASVGETVRIRCLASEDIASGISWYQQKPGKPPTLLIYGASNLESGVPPRFSGSGSGTDYTLTIGGVQAEDAATYYCLGGYSFSSNGLTFGAGTKVEIKT has what recorded kon? 54900
